# System: LOX IMVI melanoma
# Assay Method Text: NCI tumour cell line growth inhibition, 48 h
# TGI per record follows

Worked cases, answers included:
- CN(C)Cc1ccc(C(C)(C)C)cc1-c1cc(C(C)(C)C)ccc1CN(C)C: > 100 µM
- COc1cccc(C2=C(c3cn(C)c4cc(F)ccc34)C(=O)NC2=O)c1: > 25 µM
- O=C1C2Cc3c(n(C(=O)c4ccccc4)c4ccccc34)CC2C(=O)N1c1ccc(Nc2ccc(N3C(=O)C4Cc5c(n(C(=O)c6ccccc6)c6ccccc56)CC4C3=O)cc2)cc1 (stereo not drawn): > 100 µM

Here `O=C(CO[N+](=O)[O-])OC/C=C/c1ccccc1` was tested on LOX IMVI melanoma, and its TGI came to > 100 µM

Here `Clc1ccc(CCc2ccncn2)c(Cl)c1` was tested on LOX IMVI melanoma, and its TGI came to > 100 µM

Here `CCOc1ccc(OCC)c([P+](c2ccccc2)(c2ccccc2)c2ccccc2)c1` was tested on LOX IMVI melanoma, and its TGI came to 3.1 µM

Here CC1CCC(=O)C(C(O)CC2CC(=O)N(c3ccccc3)C(=O)C2)C1 (stereo not drawn) was tested on LOX IMVI melanoma, and its TGI came to > 100 µM

Here `COc1cc(/C=C/c2ccc(Br)cc2)cc(OC)c1OC` was tested on LOX IMVI melanoma, and its TGI came to > 100 µM

Here CCCCCCCCCC(CCCC(O)CC(=O)O)OC1OC(COC2OC(C)C(OC(C)=O)C(O)C2O)C(O)C(O)C1OC1OC(CO)C(O)C(O)C1OC1OC(C)C(OC(=O)CC(C)C)C(O)C1O (stereo not drawn) was tested on LOX IMVI melanoma, and its TGI came to > 35 µM

###

# System: SK-MEL-28 melanoma
# Assay Method Text: NCI tumour cell line growth inhibition, 48 h
Measured Quantity: GI50

Worked cases, answers included:
* NC(Cc1c[nH]c2ccc(F)cc12)C(=O)O (stereo unspecified) | 795 µM
* CCOC(=O)/C(C#N)=C1\SS/C(=C(/C#N)C(=O)OCC)S1 | 18.9 µM
* C/C(=N/O)c1ccc2c(c1)/C(=N/O)c1ccccc1-2 | 17.9 µM
* CCOc1ccc2c(c1)CN(Cc1ccc(Cl)cc1)CO2 | 14.4 µM
* N#Cc1ccccc1C#C/C=C\C#Cc1ccccc1N | 9.78 µM
* OCc1ccc(N2CCc3cc(F)ccc3C2)cc1Cl | 13.8 µM
* O=C1c2ccccc2C(=O)c2c1ccc1c(=O)n(-c3ccccc3C(F)(F)F)nnc21 | 5.79 µM
* CC(C)(C)NC(=O)[C@H]1CC[C@H]2[C@@H]3CC[C@H]4NC(=O)C=C[C@]4(C)[C@H]3CC[C@]12C | > 100 µM
* Cc1ccc(NC(=O)Nc2c(Cl)cccc2Cl)cn1 | 58.2 µM
* CCCCCCCCCCCCCCCCCCOc1ccccc1CC(=O)OCC[N+](CC)(CC)CC | 1.9 µM

// moving on: another record for GI50
Here `C/C(=N\n1c(O)c(C#N)cc(C#N)c1=O)c1ccncc1` was tested on SK-MEL-28 melanoma, and its GI50 came to > 100 µM

###

# System: SF-295 CNS
# Assay Method Text: NCI tumour cell line growth inhibition, 48 h
Measured Quantity: TGI (µM)
Numeric only. Scale: µM

• COc1cc(/C=C/C(=O)N2CCC=CC2=O)cc(OC)c1OC = 21.1
• COC(=O)n1c(C)c(C=O)c2ccc(OC)cc21 = 69.6
• COC1=C(OC)C(=O)C(Sc2ccc3ccccc3c2)=CC1=O = 23.8

// moving on: another record for TGI
Summary for this compound, `O=C1c2ccccc2C(=O)c2c1ccc1c(=O)n(-c3ccccc3C(F)(F)F)nnc21` : TGI is 7.02
